Target: T1, interleukin 18 binding protein (IL-18BP) (UniProt O95998 31-194); note: unit not given here
T1 sequence (looked up): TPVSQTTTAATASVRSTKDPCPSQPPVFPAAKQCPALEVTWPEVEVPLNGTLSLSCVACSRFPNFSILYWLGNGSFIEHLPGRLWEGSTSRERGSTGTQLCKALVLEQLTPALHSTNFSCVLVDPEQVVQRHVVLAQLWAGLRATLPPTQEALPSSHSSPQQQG
Experiment: cell-based or functional assay
Quick reference for HEK-Blue activity, +100 nM BP, DF-1,000,000 among some binders
PARAMETER: HEK-Blue activity, +100 nM BP, DF-1,000,000

BINDER	MEAS_VALUE
IL-18 variant S36F, N41E, K53W (ligand) YFGKLESKLSVIRNLNDQVLFIDQGNRPLFEDMTDFDMRDEAPRTIFIISMYWDSQPRGMAVTISVKSEKISTLSSENKIISFKEMNPPDNIKDTKSDIIFFQRSVPGHDNKMQFESSSYEGYFLASEKERDLFKLILKKEDELGDRSIMFTVQNED	0.09
IL-18 variant K53N, S55Y (ligand) YFGKLESKLSVIRNLNDQVLFIDQGNRPLFEDMTDSDMRDNAPRTIFIISMYNDYQPRGMAVTISVKSEKISTLSSENKIISFKEMNPPDNIKDTKSDIIFFQRSVPGHDNKMQFESSSYEGYFLASEKERDLFKLILKKEDELGDRSIMFTVQNED	0.09
IL-18 variant T34L, S36V, D40A, N41S, K53G, S55W (ligand) YFGKLESKLSVIRNLNDQVLFIDQGNRPLFEDMLDVDMRASAPRTIFIISMYGDWQPRGMAVTISVKSEKISTLSSENKIISFKEMNPPDNIKDTKSDIIFFQRSVPGHDNKMQFESSSYEGYFLASEKERDLFKLILKKEDELGDRSIMFTVQNED	0.14

These entries and their values trace back to patent US20240182536A1.
